- target-system: Virion infectivity factor (Human immunodeficiency virus type 1 group M subtype B (isolate BH10)) + Virion infectivity factor (Human immunodeficiency virus type 1 group M subtype B (isolate BRU/LAI)) + Virion infectivity factor (Human immunodeficiency virus type 1 group M subtype B (isolate PCV12)) + Virion infectivity factor (Human immunodeficiency virus type 1 group M subtype B (isolate HXB2)) + DNA dC->dU-editing enzyme APOBEC-3G (Homo sapiens) (UniProt P69720+P69721+P69722+P69723+Q9HC16)
- protocol-summary: HIV-1 Vif–A3G interaction blockers – biochemical, TR-FRET, GST-Vif 1-94, biotin-A3G peptide, dose response retest, primary screen (AID 1117319);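 further: Vif residues 1-94 fused to GST binding biotinylated APOBEC3G peptide 110-148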
- assay-context: TR-FRET GST-Vif / biotin-A3G peptide binding
Inconclusive results are not listed.

{"columns": ["compound", "IC50"],
 "data": [
  ["O=[N+]([O-])c1c(Nc2ccccc2O)cc(Cl)c2nonc12", "9.34 µM"],
  ["O=C(c1cc2n(n1)C(C(F)(F)F)CC(c1ccco1)N2)N1CCc2ccccc2C1 (configuration not stated)", "33.2 µM"],
  ["O=C1NC(=S)SC1=C1CCCC1", "6.2 µM"],
  ["COc1c(OC(C)=O)ccc(/C=C/c2ccc3ccccc3n2)c1[N+](=O)[O-]", "97.2 µM"],
  ["O=C(NC1CCC(C(=O)O)CC1)OCc1ccccc1 (configuration not stated)", "12.4 µM"],
  ["CCc1ccc2nc(N3CCN(C)CC3)c(C#N)cc2c1", "33.8 µM"],
  ["C/C(=N\\Nc1ccc(Cl)c(C(=O)O)c1)c1ccc[nH]1", "8.87 µM"],
  ["O=C1NC(=S)NC1=Cc1ccco1", "11.3 µM"],
  ["O=C1/C(=C\\c2ccco2)NC(=S)N1c1ccccc1", "16.4 µM"],
  ["O=C(N/N=C/C=C/c1ccco1)c1ccncc1", "2.36 µM"],
  ["CC1CCC/C(=C\\Nc2ccc(O)cc2)C1=O (configuration not stated)", "17.2 µM"],
  ["Nc1ccc(N(CCO)CCO)cc1", "2.17 µM"]
]}
